Reference source: patent US20250019370A1

# method_notes: Solubility kinetics in FaSSIF medium
# Assay type: physicochemical
# setup_conditions: 37° C., after 24 h
Catalogue of compounds with associated Soluble fraction

See these solved cases before continuing.
1. O=C(O)c1cc2c(Cl)c(N3CCN(S(=O)(=O)c4c(Cl)cccc4Cl)CC3)ccc2o1.c1ccc(CCNCc2ccccc2)cc1 [EYP001 Benethamine salt (Polymorph I)]; 0.01 mg/mL of EYP001
2. O=C(O)c1cc2c(Cl)c(N3CCN(S(=O)(=O)c4c(Cl)cccc4Cl)CC3)ccc2o1 [EYP001, reference compound]; 0.20 mg/mL of EYP001
3. NC1CCCCC1.O=C(O)c1cc2c(Cl)c(N3CCN(S(=O)(=O)c4c(Cl)cccc4Cl)CC3)ccc2o1; 0.19 mg/mL of EYP001

Measured Soluble fraction, C1COCCN1.O=C(O)c1cc2c(Cl)c(N3CCN(S(=O)(=O)c4c(Cl)cccc4Cl)CC3)ccc2o1 [EYP001 Morpholine salt, reference compound] : 0.22 mg/mL of EYP001

Measured Soluble fraction, O=C(O)c1cc2c(Cl)c(N3CCN(S(=O)(=O)c4c(Cl)cccc4Cl)CC3)ccc2o1.c1ccc(CCNCc2ccccc2)cc1 [EYP001 Benethamine salt (Polymorph II)] : 0.01 mg/mL of EYP001

Measured Soluble fraction, NCCCC[C@H](N)C(=O)O.O=C(O)c1cc2c(Cl)c(N3CCN(S(=O)(=O)c4c(Cl)cccc4Cl)CC3)ccc2o1 [EYP001 L-lysine salt Form I] : 0.31 mg/mL of EYP001
